system: Escherichia coli D21f2tolC; assay: microbe, parasite or virus in culture; conditions: 16 h, read-out: MIC E. coli D21f2tolC, Mueller-Hinton II agar, 16 h at 37° C.
Under this convention, 1 denotes MIC strictly below 2 µg/mL and 0 denotes MIC at or above 2 µg/mL.

[[record]]
compound = "O=C(c1c(O)cc(O)cc1O)C1CC1c1ccc(Cl)cc1 (centres unmarked) [Example 2]"
class = 0

[[record]]
compound = "CCC1=C(O)C(CC)(CC)C(=O)C(C(=O)C2CC2c2ccc(Oc3ccc(F)cc3)cc2C(F)(F)F)=C1O (centres unmarked) [Example 72]"
class = 1

[[record]]
compound = "CCCc1c(O)cc(O)c(C(=O)/C=C/c2ccc(Oc3ccc(F)cc3)cc2)c1O [Example 67]"
class = 1

[[record]]
compound = "CCCC1=C(O)C(CCC)(CCC)C(=O)C(C(=O)C2CC2c2ccc(Cl)cc2)=C1O (centres unmarked) [Example 79]"
class = 1

[[record]]
compound = "O=C(CCc1ccc(Oc2ccccc2)cc1C(F)(F)F)c1c(O)cc(O)cc1O [Example 16]"
class = 1

[[record]]
compound = "O=C(CCc1ccc(Oc2ccc(F)cc2)cc1)c1c(O)cc(O)cc1O [Example 10]"
class = 1

[[record]]
compound = "O=C(CCc1ccc(Oc2ccc(F)cc2)cc1C(F)(F)F)c1c(O)cc(O)cc1O [Example 37]"
class = 0

[[record]]
compound = "CCCC1=C(O)C(CCC)(CCC)C(=O)C(C(=O)C2CC2c2ccc(Oc3ccc(F)cc3)cc2C(F)(F)F)=C1O (centres unmarked) [Example 70]"
class = 0

